- experimental-system: T1, rhNav1.7α + β1-β2-β3 (rhesus Nav1.7α co-expressed with Navβ1, Navβ2 and Navβ3 on cells) (rhesus monkey (α subunit); β subunits …)
- T1 construct: also called rhNav1.7-beta1-beta2-beta3; CHO FlpIn rhNav1.7α + β1-β2-β3
- assay-name: binding FACS, CHO FlpIn cells
Reported pEC50 values are given for each entry in this list.
pEC50 here: minus log base 10 of the concentration, concentration in moles per litre.

Here are 5 binders together with their reported answers.
binder	result
F010301656 (VHH, also called F0103387G04(K33R, S50Y, S56D, N93R)) VHH: EVQLVESGGGLAQPGGSLRLSCAASGPVFNINRMAWYRRAPGKQRELVAYVTPTGDISYTDSVKGRFTISRDGSKRWSLQMNSLTPEDTAVYYCRALLQPDSYSNTRTYWGQGTLVTVSS	8.10
F010302385 (VHH, also called F0103387G04(L11V, A12V, K33R, R39Q, S50Y, S56D, T60A, D72Q, W78V, S79Y, T83R, V89L, N93R, D99S, N100cG)) VHH: EVQLVESGGGVVQPGGSLRLSCAASGPVFNINRMAWYRQAPGKQRELVAYVTPTGDISYADSVKGRFTISRQGSKRVYLQMNSLRPEDTALYYCRALLQPSSYSGTRTYWGQGTLVTVSS	8.30
F010302329 (VHH, also called F0103387G04(L11V, A12V, K33R, R39Q, S50Y, S56D, T60A, W78V, S79Y, T83R, V89L, N93R, S100R)) VHH: EVQLVESGGGVVQPGGSLRLSCAASGPVFNINRMAWYRQAPGKQRELVAYVTPTGDISYADSVKGRFTISRDGSKRVYLQMNSLRPEDTALYYCRALLQPDRYSNTRTYWGQGTLVTVSS	7.72
F010302320 (VHH, also called F0103387G04(L11V, A12V, K33R, R39Q, S50Y, S56D, T60A, G73A, W78V, S79Y, T83R, V89L, N93R)) VHH: EVQLVESGGGVVQPGGSLRLSCAASGPVFNINRMAWYRQAPGKQRELVAYVTPTGDISYADSVKGRFTISRDASKRVYLQMNSLRPEDTALYYCRALLQPDSYSNTRTYWGQGTLVTVSS	7.68
F010302383 (VHH, also called F0103387G04(L11V, A12V, K33R, R39Q, S50Y, S56D, T60A, D72G, W78V, S79Y, T83R, V89L, N93R, D99S, N100cG) + FLAG3-HIS6) VHH: EVQLVESGGGVVQPGGSLRLSCAASGPVFNINRMAWYRQAPGKQRELVAYVTPTGDISYADSVKGRFTISRGGSKRVYLQMNSLRPEDTALYYCRALLQPSSYSGTRTYWGQGTLVTVSS	8.35

Asked: Need pEC50 of F010302371 (VHH, also called F0103387G04(L11V, A12V, K33R, R39Q, S50Y, S56D, T60A, G73R, W78V, S79Y, T83R, V89L, N93R, D99N, S100V, N100cI)) VHH: EVQLVESGGGVVQPGGSLRLSCAASGPVFNINRMAWYRQAPGKQRELVAYVTPTGDISYADSVKGRFTISRDRSKRVYLQMNSLRPEDTALYYCRALLQPNVYSITRTYWGQGTLVTVSS , thanks.
Given back: 8.00
